system: Mycobacterium smegmatis Strain SANK 75075; test: Minimum inhibitory concentration against Mycobacterium smegmatis (agar plate dilution); format: cell-based; details: Mycolicibacterium smegmatis; Mycobacterium smegmatis SANK 75075; nutrient agar containing 5% glycerol; 37° C. for 18 hours
assay_readout: MIC (µg/mL)
Numbers only, in µg/mL.

Take a look at these entries with their results.
CCCCCCC(=O)O[C@@H]1[C@@H](O[C@@H](C(N)=O)[C@H]2O[C@@H](n3ccc(=O)[nH]c3=O)[C@H](O)[C@@H]2OC)OC(C(=O)N[C@H]2CCCCNC2=O)=C[C@@H]1OC(=O)CCCCCC [Exemp. Compound No. 280] :: 3.1
CCCCCCCCC(=O)O[C@@H]1[C@H](OC)[C@@H]([C@@H](O[C@H]2OC(C(=O)N[C@H]3CCC[C@@H](C)NC3=O)=C[C@H](O)[C@@H]2O)C(N)=O)O[C@H]1n1ccc(=O)[nH]c1=O [Exemp. Compound No. 6] :: 3.1
CO[C@H]1[C@@H](OC(=O)CC(c2ccccc2)c2ccccc2)[C@H](n2ccc(=O)[nH]c2=O)O[C@@H]1[C@@H](O[C@H]1OC(C(=O)N[C@H]2CCC[C@@H](C)NC2=O)=C[C@H](O)[C@@H]1O)C(N)=O [Exemp. Compound No. 21] :: 6.2

Value sought for every listed compound: MIC.
1. CCCCCCCCCC(=O)O[C@@H]1[C@H](OC)[C@@H]([C@@H](O[C@H]2OC(C(=O)N[C@H]3CCC[C@@H](C)NC3=O)=C[C@H](O)[C@@H]2O)C(N)=O)O[C@H]1n1ccc(=O)[nH]c1=O [Exemp. Compound No. 7]
2. CO[C@H]1[C@@H](O)[C@H](n2ccc(=O)[nH]c2=O)O[C@@H]1[C@@H](O[C@H]1OC(C(=O)N[C@H]2CCCCNC2=O)=C[C@H](O)[C@@H]1O)C(N)=O [Capuramycin, capuramycin, reference compound]
3. CCCCCCCCCCCCCCCC(=O)O[C@@H]1[C@H](OC)[C@@H]([C@@H](O[C@H]2OC(C(=O)N[C@H]3CCC[C@@H](C)NC3=O)=C[C@H](O)[C@@H]2O)C(N)=O)O[C@H]1n1ccc(=O)[nH]c1=O [Exemp. Compound No. 11]
4. CCCCCCCCCCCCCCCC(=O)O[C@H]1C=C(C(=O)N[C@H]2CCCCNC2=O)O[C@H](O[C@@H](C(N)=O)[C@H]2O[C@@H](n3ccc(=O)[nH]c3=O)[C@H](O)[C@@H]2OC)[C@H]1O [Exemp. Compound No. 135]

1. 6.2
2. 12.5
3. 6.2
4. 1.5

Recorded MIC of CCCCCCCCCCCCCCCC(=O)O[C@@H]1[C@H](OC)[C@@H]([C@@H](O[C@H]2OC(C(=O)N[C@H]3CCCCNC3=O)=C[C@H](O)[C@@H]2O)C(N)=O)O[C@H]1n1ccc(=O)[nH]c1=O [Exemp. Compound No. 53] , please.
6.2

Taken from patent US6472384B1.
